# maps each entry to its L. major SI (CC50/ IC50)
- Tested on: L. major promastigotes
- PROCEDURE_SUMMARY: Promastigote growth inhibition assay (MTT), L. major
- Assay type: cell-based, Leishmania major
- EXPERIMENTAL_PARAMETERS: CC50 3T3 mouse fibroblast cell line / IC50 L. major
Enter a number only.

C[C@]12C(=O)C=CCC1=CC[C@@H]1[C@@H]2CC[C@]2(O)C(=O)O[C@@]3(C)[C@H]4C[C@]5(C)[C@@H](CO[C@@]16O[C@@]32[C@H]5C6=O)C(=O)O4 [Compound 2, Physalin B] : 3.28
CC12CC3OC(=O)C1COC14OC5(C2C1=O)C(O)(CCC1C4CC(O)C2(Cl)CC=CC(=O)C12C)C(=O)OC35C (stereo not shown) [Compound 5, Physalin H] : 0.119
C=C1C(=O)OC2CC1(C)C1C(=O)C3(O)OC14C(O)(CCC1C3CC3OC35CC=CC(=O)C15C)C(=O)OC24C (stereo not drawn) [Compound 6, 5β, 6β-epoxyphysalin C] : 0.007

Kindly consider the entry below.
I would be grateful if you could share the reported L. major SI (CC50/ IC50) for CC12CC3OC(=O)C1COC14OC5(C2C1=O)C(O)(CCC1C4CC2OC24CC=CC(=O)C14C)C(=O)OC35C (stereo not drawn) [Compound 3, 5β, 6β-epoxyphysalin B] .
0.19

###

- System: 3T3 (mouse fibroblast) cells
- PROCEDURE_SUMMARY: Cytotoxicity (MTT) against 3T3 cell line
- Type: cell-based
- EXPERIMENTAL_PARAMETERS: Mus musculus, Fibroblast; cytotoxicity of compounds 1-9; read-out: 3T3 (mouse fibroblast) IC50 (μM ± SD)
# maps each entry to its IC50
Output spec: scalar in µM, unitless text.

Completed entries (count: 2):
CCOC12CC=CC(=O)C1(C)C1CCC3(O)C(=O)OC4(C)C5CC6(C)C(COC7(OC34C6C7=O)C1CC2O)C(=O)O5 (stereo not drawn) : 19.6
C=C1C(=O)OC2CC1(C)C1C(=O)C3(O)OC14C(O)(CCC1C3CC3OC35CC=CC(=O)C15C)C(=O)OC24C (stereo not drawn) : 0.6

I would be grateful if you could share the reported IC50 for CC12CC3OC(=O)C1COC14OC5(C2C1=O)C(O)(CCC1C4CC(O)C2(Cl)CC=CC(=O)C12C)C(=O)OC35C (stereo not drawn) .
0.4

###

- Test system: L. major promastigotes
- PROCEDURE_SUMMARY: Promastigote growth inhibition assay (MTT), L. major
- Type: cell-based, Leishmania major
- EXPERIMENTAL_PARAMETERS: CC50 BJ fibroblast cell line / IC50 L. major
Label MET when L. major SI (CC50/ IC50) >= 4; otherwise NOT MET.

Solved cases (3 shown):
CC12CC3OC(=O)C1COC14OC5(C2C1=O)C(O)(CCC1C4CC2OC24CC=CC(=O)C14C)C(=O)OC35C (centres unmarked) : MET
C=C1C(=O)OC2CC1(C)C1C(=O)C3(O)OC14C(O)(CCC1C3CC3OC35CC=CC(=O)C15C)C(=O)OC24C (centres unmarked) : NOT MET
CC12CC3OC(=O)C1COC14OC5(C2C1=O)C(O)(CCC1C4CC(O)C2(Cl)CC=CC(=O)C12C)C(=O)OC35C (centres unmarked) : NOT MET

Does L. major SI (CC50/ IC50) meet or surpass 4 for C[C@@H]1[C@H](O)[C@@H](C)/C=C/C=C/C=C/C=C/C=C/C=C/C=C/[C@H](O[C@@H]2O[C@H](C)[C@@H](O)[C@H](N)[C@@H]2O)C[C@@H]2O[C@](O)(C[C@@H](O)C[C@@H](O)[C@H](O)CC[C@@H](O)C[C@@H](O)CC(=O)O[C@H]1C)C[C@H](O)[C@H]2C(=O)O [Amphotericin B, reference compound] ?
MET

Does L. major SI (CC50/ IC50) meet or surpass 4 for C[C@]12C(=O)C=CCC1=CC[C@@H]1[C@@H]2CC[C@]2(O)C(=O)O[C@@]3(C)[C@H]4C[C@]5(C)[C@@H](CO[C@@]16O[C@@]32[C@H]5C6=O)C(=O)O4 ?
NOT MET
